Test: Systemic pharmacokinetics and total colon tissue distribution after single oral administration
Format: in vivo, mouse
Conditions: male, C57BL/6, mouse, plasma; mice, oral 5 mg/kg, 12 h, compound 1 measured; read-out: Mean plasma concentration
Where a name gives a salt, the structure may show the parent alone.
metric name: concentration at 12 h (ng/mL)
Respond numerically; units are ng/mL and should not be typed.

Enquiry: So what's the measured concentration at 12 h for this one? COc1cc(Nc2cc(Oc3ccc(NC(=O)Nc4cc(C(C)(C)C)cc(NS(C)(=O)=O)c4OC)c4ccccc34)ccn2)ccc1C(=O)O [1 (sodium salt)]
Return: 5.3

---

Assay: Solubility in fasted-state simulated colonic fluid (FaSSCoF)
Type: physicochemical
Settings: fasted-state simulated colonic fluid (FaSSCoF), 25 °C, fassgf or other biorelevant, thermodynamic from solid; pH 6.5, text summary; read-out: solubilities in the FaSSCoF medium at pH 6.5
metric name: solubility at 24 h

Enquiry: Would you kindly share the measured solubility at 24 h for `COc1cc(Nc2cc(Oc3ccc(NC(=O)Nc4cc(C(C)(C)C)cc(NS(C)(=O)=O)c4OC)c4ccccc34)ccn2)ccc1C(=O)O` ?
Return: > 10 µg/mL

---

Biological target: p38 MAPKα (Homo sapiens (Human), UniProt Q16539)
Sequence (Q16539 whole entry, looked up): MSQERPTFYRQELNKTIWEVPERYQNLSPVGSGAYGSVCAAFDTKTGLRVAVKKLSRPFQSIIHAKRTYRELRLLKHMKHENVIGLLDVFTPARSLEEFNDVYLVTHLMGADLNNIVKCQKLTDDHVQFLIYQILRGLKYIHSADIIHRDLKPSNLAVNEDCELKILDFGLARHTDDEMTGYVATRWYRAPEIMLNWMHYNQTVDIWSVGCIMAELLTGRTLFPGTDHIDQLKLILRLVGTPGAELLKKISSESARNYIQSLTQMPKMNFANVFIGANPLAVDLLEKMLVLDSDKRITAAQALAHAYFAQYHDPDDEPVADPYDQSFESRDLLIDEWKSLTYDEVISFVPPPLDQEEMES
metric name: pIC50
Remember, pIC50 is on a log scale: it is -log10 of the molar concentration.

Enquiry: Any idea what pIC50 came out for `COc1cc(Nc2cc(Oc3ccc(NC(=O)Nc4cc(C(C)(C)C)cc(NS(C)(=O)=O)c4OC)c4ccccc34)ccn2)ccc1C(=O)O` on p38 MAPKα (Homo sapiens (Human), UniProt Q16539)?
Return: 7.96

---

Assay: Solubility in fasted-state simulated colonic fluid (FaSSCoF)
Assay type: physicochemical
Conditions: fasted-state simulated colonic fluid (FaSSCoF), 25 °C, pH 6.5, fassgf or other biorelevant, thermodynamic from solid, pH 6.5, 25° C., 24 h; read-out: pH 6.5 FaSSCoF Solubility Run 2
metric name: solubility thermodynamic at 24 h

Enquiry: Query (compound): C#Cc1cc(Nc2nccc(Oc3ccc(NC(=O)Nc4cc(C(C)(C)C)nn4-c4ccc(C)cc4)c4ccccc34)n2)cc(C(=O)NCCOCCOCCOC)c1 [Reference Compound A, reference compound] ; field requested: solubility thermodynamic at 24 h
Return: < 1 µg/mL

---

Assay: Systemic pharmacokinetics and total colon tissue distribution after single oral administration
Assay type: in vivo, mouse
Conditions: male, C57BL/6, mouse, total colon; mice, oral 5 mg/kg, 24 h, compound 1 measured; read-out: Mean total colon level
Counter-ions that a name gives are not always drawn.
metric name: concentration at 24 h (ng/g)
The reply should contain only the number, in ng/g.

Enquiry: # concentration at 24 h lookup, item COc1cc(Nc2cc(Oc3ccc(NC(=O)Nc4cc(C(C)(C)C)cc(NS(C)(=O)=O)c4OC)c4ccccc34)ccn2)ccc1C(=O)O [1 (sodium salt)]
Return: 41.4

---

Experiment: Systemic pharmacokinetics and total colon tissue distribution after single oral administration
Format: in vivo, mouse
Conditions: male, C57BL/6, mouse, total colon; mice, oral 5 mg/kg, 1 h, compound 1 measured; read-out: Mean total colon level
Where a name gives a salt, the structure may show the parent alone.
metric name: concentration at 1 h
Form entry: enter the amount, then its unit.

Enquiry: Entry COc1cc(Nc2cc(Oc3ccc(NC(=O)Nc4cc(C(C)(C)C)cc(NS(C)(=O)=O)c4OC)c4ccccc34)ccn2)ccc1C(=O)O [1 (sodium salt)] : reported concentration at 1 h = ?
Return: 9.3 ng/g
